# System: primary rat mixed cortical cells
# procedureText: In vitro myelination assay (MBP positive myelin strands, fold myelin pixels above background)
# Type: cell-based
# assayContext: Rattus norvegicus, 1.0 μM compound, relative to baseline of no added compound; read-out: Fold myelin pixels above background
# Source text: In Vitro Myelination Assay Compounds were screened for their ability to induce myelination using a primary rat mixed cortical cell culture assay, which contains neurons, oligodendrocyte precursor cells, oligodendrocytes, astrocytes and microglia. […] The myelin strands were quantitated using a custom created myelin detection software program. […]
Entries and their fold induction at 1 µM values follow.
property: fold induction at 1 µM

{"columns": ["compound", "assayTarget", "property", "endpointResult"],
 "data": [
  ["Cc1cc(N2CC(N3CCOCC3)C2)cc(Nc2ncn(-c3cc(F)cc(F)c3)n2)n1 [Compound 616]", "primary rat mixed cortical cells", "fold induction at 1 µM", "1 to 10"],
  ["Cc1cc(Nc2ncn(-c3cc(F)cc(F)c3)n2)cc(N2CC(N3CCC(F)CC3)C2)c1 [Compound 617]", "primary rat mixed cortical cells", "fold induction at 1 µM", "10 to 100"],
  ["Cc1cc(Nc2ncn(-c3cncc(F)c3)n2)cc(C2COC2)c1 [Compound 447]", "primary rat mixed cortical cells", "fold induction at 1 µM", "10 to 100"],
  ["Cc1nccc(-n2cnc(Nc3cc(C4CC4)cc(N4CCN(C5COC5)CC4)c3)n2)n1 [Compound 454]", "primary rat mixed cortical cells", "fold induction at 1 µM", "≤ 1"],
  ["Cc1cc(Nc2ncn(-c3ccc(F)c(F)c3)n2)cc(O[C@H]2CCCN(C3COC3)C2)c1 (single isomer, unassigned) [Compound 632]", "primary rat mixed cortical cells", "fold induction at 1 µM", "10 to 100"],
  ["Cc1cc(Nc2ncn(-c3ccccc3)n2)cc(N2C[C@@H](C)N(C)[C@@H](C)C2)c1 [Compound 423]", "primary rat mixed cortical cells", "fold induction at 1 µM", "100 to 1000"],
  ["Cc1cc(Nc2ncn(-c3cc(F)cc(F)c3)n2)cc(OC2CCCOC2)c1 (centres unmarked) [Compound 635]", "primary rat mixed cortical cells", "fold induction at 1 µM", "10 to 100"],
  ["Cc1cc(Nc2ncn(-c3ccnnc3)n2)cc(N2CCN(C)CC2)c1 [Compound 399]", "primary rat mixed cortical cells", "fold induction at 1 µM", "10 to 100"],
  ["Fc1cc(Nc2ncn(-c3ccccc3)n2)cc(C2CCNC2)c1 (centres unmarked) [Compound 452]", "primary rat mixed cortical cells", "fold induction at 1 µM", "10 to 100"],
  ["Cc1cc(Nc2ncn(-c3cc(F)cc(F)c3)n2)cc(N(C)CCN2CCOCC2)c1 [Compound 738]", "primary rat mixed cortical cells", "fold induction at 1 µM", "10 to 100"],
  ["Cc1cc(Nc2ncn(-c3ccc(F)c(F)c3)n2)cc(OCc2ccn(C)n2)c1 [Compound 714]", "primary rat mixed cortical cells", "fold induction at 1 µM", "10 to 100"],
  ["Cc1cc(Nc2ncn(-c3ccc(F)c(F)c3)n2)cc(O[C@@H]2CCCN(C3COC3)C2)c1 (single isomer, unassigned) [Compound 665]", "primary rat mixed cortical cells", "fold induction at 1 µM", "10 to 100"],
  ["Cc1cc(Nc2ncn(-c3cc(F)cc(F)c3)n2)cc(C2(F)CCN(C3COC3)CC2)c1 [Compound 515]", "primary rat mixed cortical cells", "fold induction at 1 µM", "≤ 1"],
  ["Cc1cc(Nc2ncn(-c3ccc(F)c(F)c3)n2)nc(N2CC(N3CCOCC3)C2)c1 [Compound 501]", "primary rat mixed cortical cells", "fold induction at 1 µM", "1 to 10"],
  ["Fc1cc(F)cc(-n2cnc(Nc3cc(N4CCN(C5COC5)CC4)nc(C(F)(F)F)c3)n2)c1 [Compound 760]", "primary rat mixed cortical cells", "fold induction at 1 µM", "1 to 10"],
  ["COc1cc(Nc2ncn(-c3cc(F)cc(C(F)(F)F)c3)n2)cc(N2CCN(C3COC3)CC2)c1 [Compound 754]", "primary rat mixed cortical cells", "fold induction at 1 µM", "10 to 100"],
  ["N#Cc1cc(Nc2ncn(-c3cccc(F)c3)n2)cc(N2CCOCC2)c1 [Compound 737]", "primary rat mixed cortical cells", "fold induction at 1 µM", "10 to 100"],
  ["CC(=O)N1CCN(c2cc(C(F)(F)F)cc(Nc3ncn(-c4cc(F)cc(F)c4)n3)n2)CC1 [Compound 555]", "primary rat mixed cortical cells", "fold induction at 1 µM", "10 to 100"],
  ["Cc1cc(Nc2ncn(-c3cc(F)cc(F)c3)n2)nc(N2CCN(C3CCOC3)CC2)c1 (centres unmarked) [Compound 562]", "primary rat mixed cortical cells", "fold induction at 1 µM", "1 to 10"],
  ["CC(=O)OCC(C)(CO)N1CCN(c2cc(C)cc(Nc3ncn(-c4cc(F)cc(F)c4)n3)c2)CC1 (centres unmarked) [Compound 534]", "primary rat mixed cortical cells", "fold induction at 1 µM", "1 to 10"],
  ["Cc1cc(Nc2ncn(-c3ccc(F)c(F)c3)n2)cc(OCC2(C)COC2)c1 [Compound 615]", "primary rat mixed cortical cells", "fold induction at 1 µM", "10 to 100"],
  ["Cc1cc(Nc2ncn(-c3cccc(F)c3)n2)nc(N2CC(N3CCOCC3)C2)c1 [Compound 538]", "primary rat mixed cortical cells", "fold induction at 1 µM", "1 to 10"],
  ["Cc1cc(Nc2ncn(-c3cc(F)cc(F)c3)n2)cc(N2CCNC(C(F)(F)F)C2)c1 (centres unmarked) [Compound 552]", "primary rat mixed cortical cells", "fold induction at 1 µM", "10 to 100"]
]}
